Molecular target: THOC4 (ALYREF) (UniProt Q86V81 Q86V81:2-257)
Experiment: SPR; LSA_In3E3 = 1
Readout Name: binding signal

The cases that follow already have their binding signal on record.
Binder: CCAGUGAGCCGGACUUGCCU (ssRNA, PS all, no sugar modification) [In3E3 PS only (DKLS426690)]
Readout Name: binding signal
Reported Result: 1.06 normalized Rmax

Binder: CCGGACUUGCCU (ssRNA, 2'-OMe all, PS all) [In3E3 5' truncation 12 nt]
Readout Name: binding signal
Reported Result: 0.07 normalized Rmax

Binder: CCAGUGAGCCGGAC (ssRNA, 2'-OMe all, PS all) [In3E3 3' truncation 14 nt]
Readout Name: binding signal
Reported Result: 0.08 normalized Rmax

Binder: CCAGUGAG (ssRNA, 2'-OMe all, PS all [2'-OMe at 1-8 (all); PS at all linkages]) [In3E3 3' truncation 8 nt]
Readout Name: binding signal
Reported Result: -0.05 normalized Rmax

Binder: CAGUGAGCCGGACUUGCCU (ssRNA, 2'-OMe all, PS all) [In3E3 5' truncation 19 nt]
Readout Name: binding signal
Reported Result: 0.87 normalized Rmax

Exam item: Fill in reported binding signal for this entry: CCAGUGAGCUGGACUUGCCU (ssRNA, 2'-OMe all, PS all) [In3LSA_CU]
Marked response: 0.54 normalized Rmax

Exam item: Fill in reported binding signal for this entry: CCAGUGAGCCGGA (ssRNA, 2'-OMe all, PS all) [In3E3 3' truncation 13 nt]
Marked response: 0.08 normalized Rmax

Exam item: Fill in reported binding signal for this entry: CCAGUGAGCCGG (ssRNA, 2'-OMe all, PS all) [In3E3 3' truncation 12 nt]
Marked response: 0 normalized Rmax
